Conditions: buffer; pH 7.4; 200.0 µM
Assay readout: solubility kinetic

# Molecule, solubility kinetic
measured = [
    ("Cc1ccc(S(=O)(=O)/N=C(/c2ccccc2)N(C)C)c(C)c1", "> 47.5 µg/mL"),
    ("O=C(O)COCC(=O)Nc1ccc(-n2cnnn2)cc1", "> 41.6 µg/mL"),
]

Reported solubility kinetic for O=C(O)CC(C(=O)Nc1ccc(Cl)cc1)N1CCCCCC1 (stereo not given) : what is it?
> 48.7 µg/mL

Sample Cc1csc(SCC(=O)NC(C)C2CC3CCC2C3)n1 (stereo not given) — what was its solubility kinetic?
> 46.6 µg/mL

----------
Known solubility kinetic of a selection of molecules
Settings: buffer; pH 7.4; 200.0 µM
The reply should contain only the number, in µg/mL.

# Molecule, solubility kinetic, µg/mL
records = [
    ("COC(=O)[C@H](CC(C)C)NC(=O)NCc1ccc(Cl)cc1", 42.5),
]

Could you share which solubility kinetic value was measured for CCc1ccc(NC(=O)C2CCCN2C(=O)NC2CCCCC2)cc1 (centres undefined) ?
1.1

Give the measured solubility kinetic of Cc1c2c(nc3ccccc13)CC(C)(C)CC2=O.Cl .
36.8

I have this molecule here, COc1ccccc1COC(=O)N/C=C/c1ccco1 , and I need its recorded solubility kinetic.
18.3

Which measured solubility kinetic value corresponds to CC1CCN(C(=O)c2ccc(CNS(=O)(=O)c3ccc(C(C)(C)C)cc3)cc2)CC1 ?
8.3

Need solubility kinetic, item Nc1nc(Cl)c(C=O)c(N2CCCCC2)n1
34.6

What does the record list as solubility kinetic for CC(C)C(NC(=O)c1ccccc1)C(=O)NCCc1ccccc1 (centres undefined) ?
9.4

# solubility kinetic lookup, item CC(Sc1nc(N)cc(=O)[nH]1)C(=O)Nc1nc2c(s1)CCCC2 (centres undefined)
8.7

Look up solubility kinetic: O=c1[nH]c(O)c(C=Nc2cccc(F)c2)c(=O)[nH]1
4.8

Which solubility kinetic value is on record for O=C1CSC(c2ccc(F)cc2)N1c1ccccc1F (centres undefined) ?
36.8

Reported solubility kinetic, molecule NC(=O)C1CCN(c2ccc([N+](=O)[O-])cc2Cl)CC1 : ____
3.3

Reported solubility kinetic, molecule Nc1nc2c(s1)CCCCCCCCCC2 : ____
6.6

What solubility kinetic value was documented for this molecule, C=CCn1c(O)c(C=Nc2ccc(CN3CCCCC3)cc2)c(=O)[nH]c1=S ?
51.8

// returns reported solubility kinetic for input COc1ccccc1Nc1ncccc1[N+](=O)[O-]
1.2

Name the recorded solubility kinetic for NCCNC[C@@H]1COC2(CCCCCCCCCCC2)O1 .
32.7

----------
Conditions: buffer; pH 7.4; 200.0 µM
Assay readout: solubility kinetic

# Compound structure, solubility kinetic
rows = [
    ("O=C(COC(=O)c1cccnc1Cl)NCc1ccco1", "> 44.2 µg/mL"),
    ("CN(Cc1cccc(Cl)c1Cl)C(=O)CCNC(=O)c1ccco1", "> 53.3 µg/mL"),
    ("CCNc1cc(N2CCN(C)CC2)ccc1[N+](=O)[O-]", "> 39.6 µg/mL"),
    ("CN(CC(=O)Nc1ccc(F)cc1)C(=O)CSc1nnc(Cc2ccccc2)o1", "> 62.2 µg/mL"),
]

Consider the additional compound presented here.
For the compound O=C(O)c1ccc[n+](Cc2ccc([N+](=O)[O-])cc2)c1.[Br-] , what solubility kinetic is on record?
> 50.9 µg/mL
